Test: protease stability score; higher = more stable; yeast display proteolysis, trypsin and chymotrypsin;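 further: relative to predicted unfolded state with 0 unfolded-like and 1 meaning tenfold more protease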
Entries annotated with measured protease stability score
quantityName: protease stability score

                                residuecodes              quantityname  endpointvalue
 0  DEIEKEMLKRARDILENWVTGDEDEFNRLADPNVRFELVYGDKSHSHHGMENLKKWLEEWTKRVDHFDLKIKSQRVVGDKAETETKLILNYDGRRFEHDTRIDVVVVNGRIKQIRVEIR  protease stability score           1.59
 1  SEEEDHIREFLLLIIHAFRTGDEEFFERNVDPNVRLHSDVDGRELQLHGRDEFSRYFHHFRHRAGIDHIEDKRVTSQGDKIIVHGWSIVGDKIHHLELHFIVIDGQVHTVEIRPK  protease stability score           1.28
 2  DTDTHTVKEFIRALVESSRTGDEDLLRDFADPRMRIDIDGRIFHGRENALRWLSELRIEEVRIDHVTIVDGRLHVDVTYRGDINGQHTETRVILIILKVNGRWRMHYIEVR  protease stability score           1.55
 3  DKDERMRNEAFKITEHLHHTGDWHTRSRLADPEVQLIIGDKEYHGRETASEVLHKYLKRLGVDHLELKHFEVKMFDGQLHIHLHIELHINGVIYEVHIHIVMEKINGRWVIKHERIEFR  protease stability score           1.01
 4  SEDEDLFHHVLHVWLNAMETGDFEVFKHLLDPRTKEHQGDKHLIGREDALRKFREEWEKYPNMRVEIRVDDWDIQGNKIRAKVHIIIRQGDKTYSVEIDLIMVKVNGRWFIHSIIIH  protease stability score          0.966
 5  SEWDELLRHILEVMINSVLTGDEHRQLWMADPHAKVHFENHEVHGRDHWSHLVREHINEIRMRIHLHDEKTVGNFAVSDVRYREEVNGVELSTEIELILIVVDGRLKQIEFRYH  protease stability score         -0.029
 6  DEDRKHWETLLKIAFHLFRTGDEEKWERMFDPHARLHINGKDIHGREDIVHFLQEHLDHLWIEDVKVERMSVYNGVLHVDIRIHYRQGDKVYDVESSIDNIVIDGKSHRIRFDFH  protease stability score           1.26
 7  DEDREDARKIFHDFIRALNTGDEDTLAELLDPNTKIHIGEFNLIGMERVREWLQRVDHTHTHIKVRRVDVVNGQIIMDTETEIHIHIGDFTLEIQTRTEMVILKINGRWFIKRVNLI  protease stability score           1.72
 8  DEKEKVVRIAQEIINTIIHTGDERILEEFIDPNVRFYFNGQEFHGRELMSEIEKKHRDRFKNLRIFVEDTHVEVYGEWLRIKVHLRLEIGDKRHELHLDIIALKVNGRWLNKSAELRVE  protease stability score           1.64
 9  DETKEDTNRWIEHELRALKTGNWKEQFKNLDPNVRMHLHVGDKNKDLHGREKVTTELRRLFEEFGIKHIHLTNFEVQGDKIHLIMHIEVDGRHIELHLIVTKIDGKWHMESIEMHFR  protease stability score          0.866
10  DEEKEISKKATEILISILRTGDEDVMREYLDPHVRIDFNGKQLHGMDYLWRLLKHMRLRSLDVHSFHFVDGVIEVDSRSDGEVNGQRTDYHFHFIIEKVNGKWWLHKVKFE  protease stability score           1.64
